Cited source: patent US20030166932A1

target: UniProt:P28704; test: ligand binding assay; conditions: read-out: RXR Bind Ki (nM) β
molecules and their reported Ki
Give the quantity in nM, number only.

CCCCCCOc1cc2c(cc1N(CC)c1ccc(C(=O)O)cc1)C(C)=CCC2(C)C [Compound 142]	111
CCC1=CCC(C)(C)c2cc(N(CC)c3ccc(C(=O)O)cc3)ccc21 [Compound 75]	806
CCN(c1ccc(C(=O)O)cc1)c1cc2c(cc1OCc1ccccc1)C(C)(C)CC=C2C(C)C [Compound 154]	19
CCN(c1ccc(C(=O)O)cc1)c1cc2c(cc1C)C(C)(C)CC=C2C(C)(C)C [Compound 26]	30
CCCOc1cc2c(cc1N(CC)c1ccc(C(=O)O)cc1)C(C(C)C)=CCC2(C)C [Compound 150]	208

Given CCCCCCCOc1cc2c(cc1N(CC)c1ccc(C(=O)O)cc1)C(C)=CCC2(C)C [Compound 143] , state its recorded Ki.
449

Try this molecule next: CCN(c1ccc2c(c1)C(C(C)C)=CCC2(C)C)c1ccc(C(=O)O)cn1 [Compound 172]
4

Try this molecule next: CCN(c1ccc(C(=O)O)cc1)c1cc2c(cc1OC(C)C)C(C)(C)CC=C2C(C)C [Compound 151]
155
